The compounds listed here are annotated with their melting point.

Examples with answers:
compound=CCS(=O)(CC)=Nc1c(C(=O)OC)ccc(C(=O)c2cnn(C)c2O)c1Cl property_measured="melting point" measured_value="69 to 73 °C"
compound=Cc1ccc(C(=O)c2c(C)nn(C)c2O)c(C)c1N=S1(=O)CCCCC1 property_measured="melting point" measured_value="122 to 124 °C"
compound=COc1ccc(C(=O)c2cnn(C)c2O)c(Cl)c1N=S(C)(C)=O property_measured="melting point" measured_value="164 to 166 °C"
compound=COC(=O)c1ccc(C(=O)c2cnn(C)c2O)c(Cl)c1N=S(C)(C)=O property_measured="melting point" measured_value="115 to 125 °C"
compound=O=C1CCCC(O)=C1C(=O)c1ccc(OC(F)F)c(N=S2(=O)CCCCC2)c1Cl property_measured="melting point" measured_value="125 to 127 °C"

INPUT: // fetch melting point given entry `COC(=O)c1ccc(C(=O)c2cnn(C)c2O)c(Cl)c1N=S1(=O)CCCCC1`
OUTPUT: 204 to 206 °C

INPUT: // fetch melting point given entry `CCS(=O)(CC)=Nc1c(OC)ccc(C(=O)c2cnn(C)c2O)c1Cl`
OUTPUT: 165 to 168 °C

###

The molecules listed here are annotated with their melting point.

Examples with answers:
molecule=CSCOc1ccc(C(=O)c2cnn(C)c2O)c(Cl)c1N=S1(=O)CCCCC1 measured_value="112 to 114 °C"
molecule=Cn1ncc(C(=O)c2ccc(OCS(C)(=O)=O)c(N=S3(=O)CCCCC3)c2Cl)c1O measured_value="104 to 106 °C"
molecule="COc1ccc(C(=O)c2cnn(C)c2O)c(Cl)c1N=S(C)(=O)c1ccccc1 (stereo not shown)" measured_value="88 to 91 °C"

INPUT: // fetch melting point given entry `Cn1ncc(C(=O)c2ccc(-c3ccco3)c(N=S3(=O)CCCCC3)c2Cl)c1O`
OUTPUT: 97 to 103 °C

###

The compounds listed here are annotated with their melting point.

INPUT: // fetch melting point given entry `COc1ccc(C(=O)C2=C(O)CCCC2=O)c(OC)c1N=S1(=O)CCCCC1`
OUTPUT: 129 to 131 °C

###

The molecules listed here are annotated with their melting point.

chemical_smiles=Cn1ncc(C(=O)c2cccc(N=S3(=O)CCCCC3)c2)c1O property_measured="melting point" measured_value="112 to 113 °C"

INPUT: // fetch melting point given entry `Cn1ncc(C(=O)c2cccc(N=S3(=O)CCCCC3)c2Cl)c1O`
OUTPUT: 177 to 179 °C

INPUT: // fetch melting point given entry `CSc1c(C(=O)c2cnn(C)c2O)ccc(C(F)(F)F)c1N=S1(=O)CCCCC1`
OUTPUT: 155 to 157 °C

INPUT: // fetch melting point given entry `CSc1ccc(C(=O)C2=C(O)CCCC2=O)c(Cl)c1N=S1(=O)CCCCC1`
OUTPUT: 178 to 180 °C

INPUT: // fetch melting point given entry `COc1c(C(=O)c2cnn(C)c2O)ccc(C)c1N=S1(=O)CCCCC1`
OUTPUT: 85 to 87 °C

###

- System: rice plants
- Assay text: Paddy pot test, harmful effects on transplanted rice plants
- Assay type: in vivo
- Parameters: scale not given here
- Particulars: Screening, 63 g/ha, applied at Echinochloa crus-galli 1.5-leaf stage, examined after 3 weeks
Property measured: Rice (harmful effects on the rice plants, index)
Write the number on its own, no unit after it.

Examples with answers:
compound=CC(C)c1ccc(C(=O)C2=C(O)CCCC2=O)c(Cl)c1N=S1(=O)CCCCC1 measured_value=0
compound=COc1ccc(C(=O)c2cnn(C)c2OCc2ccc3ccccc3c2)c(F)c1N=S1(=O)CCCCC1 measured_value=0
compound="COc1ccc(C(=O)c2cnn(C)c2O)c(Cl)c1N=S(C)(=O)c1ccccc1 (centres unmarked)" measured_value=0
compound=Cc1c(N=S2(=O)CCCCC2)cccc1C(=O)c1cnn(C)c1O measured_value=0

INPUT: // fetch Rice (harmful effects on the rice plants, index) given entry `COc1ccc(C(=O)c2cnn(C)c2OCc2ccc3ccccc3c2)c(Cl)c1N=S1(=O)CCCC1`
OUTPUT: 0

INPUT: // fetch Rice (harmful effects on the rice plants, index) given entry `COC(=O)c1ccc(C(=O)c2c(C3CC3)nn(C)c2O)cc1N=S1(=O)CCCCC1`
OUTPUT: 0

INPUT: // fetch Rice (harmful effects on the rice plants, index) given entry `COc1ccc(C(=O)c2cnn(C)c2OS(=O)(=O)c2ccc(C)cc2)c(Cl)c1N=S1(=O)CCCCC1`
OUTPUT: 0

INPUT: // fetch Rice (harmful effects on the rice plants, index) given entry COc1ccc(C(=O)c2cnn(C)c2OC(=O)SC)c(Cl)c1N=S(C)(=O)C(C)C (centres unmarked)
OUTPUT: 0

Where do the numbers come from? From patent US20110144345A1.
